Tested on: DMPK
Test: DMPK knockdown by transfected antisense oligonucleotides in DM1 C15 myotubes at 0.5 nM and 50 nM
Format: cell-based
Details: 0.5 nM oligonucleotide, 72 hours, qPCR, relative to vehicle control
Experimental: Two hundred and thirty-six oligonucleotides for targeting DMPK were generated using in silico analysis. Each individual oligonucleotide was evaluated for their ability to target DMPK in cellulo at two doses—0.5 nM (low dose) and 50 nM (high dose). Briefly, DM1 C15 immortalized myoblasts were cultured in T-75 flasks until near confluency (˜80% confluent). Myoblasts were then disrupted with trypsin and seeded into 96-well microplates at a density of 50,000 cells/well. […]

{"SUBSTANCE": "301 (UGUUGUCGGGUUUGAUGUCC; chemistry not given here) [compound 301]", "Percent DMPK Reduction / %": 21.00}
{"SUBSTANCE": "369 (CAUGACAAUCUCCGCCAGGU; chemistry not given here) [compound 369]", "Percent DMPK Reduction / %": 29.45}
{"SUBSTANCE": "275 (AGCGCCUCCGAUAGGCCAGG; chemistry not given here) [compound 275]", "Percent DMPK Reduction / %": 21.19}
{"SUBSTANCE": "298 (UGCUUCAUCUUCACUACCGC; chemistry not given here) [compound 298]", "Percent DMPK Reduction / %": 28.82}
{"SUBSTANCE": "348 (AUGAUCUUCAUGGCAUACAC; chemistry not given here) [compound 348]", "Percent DMPK Reduction / %": 12.76}
{"SUBSTANCE": "254 (UUGUCGGGUUUGAUGUCCCU; chemistry not given here) [compound 254]", "Percent DMPK Reduction / %": 34.16}
{"SUBSTANCE": "248 (CAAACUUGCUCAGCAGUGUC; chemistry not given here) [compound 248]", "Percent DMPK Reduction / %": 31.45}
{"SUBSTANCE": "294 (CGUUCCAUCUGCCCGCAGCU; chemistry not given here) [compound 294]", "Percent DMPK Reduction / %": 33.74}
